Can you tell me OD450 nm for the items I'm about to list?
Target: T1, recombinant cyno monkey PCSK9 protein (cyno monkey, UniProt A8T666 31-692 (rhesus entry), limits assumed, biotin-labelled in the ELISA (Biotin labeling kit))
T1 construct: also called cyno PCSK9; Cyno Monkey PCSK9-His
T1 sequence (A8T666 31-692 limits assumed): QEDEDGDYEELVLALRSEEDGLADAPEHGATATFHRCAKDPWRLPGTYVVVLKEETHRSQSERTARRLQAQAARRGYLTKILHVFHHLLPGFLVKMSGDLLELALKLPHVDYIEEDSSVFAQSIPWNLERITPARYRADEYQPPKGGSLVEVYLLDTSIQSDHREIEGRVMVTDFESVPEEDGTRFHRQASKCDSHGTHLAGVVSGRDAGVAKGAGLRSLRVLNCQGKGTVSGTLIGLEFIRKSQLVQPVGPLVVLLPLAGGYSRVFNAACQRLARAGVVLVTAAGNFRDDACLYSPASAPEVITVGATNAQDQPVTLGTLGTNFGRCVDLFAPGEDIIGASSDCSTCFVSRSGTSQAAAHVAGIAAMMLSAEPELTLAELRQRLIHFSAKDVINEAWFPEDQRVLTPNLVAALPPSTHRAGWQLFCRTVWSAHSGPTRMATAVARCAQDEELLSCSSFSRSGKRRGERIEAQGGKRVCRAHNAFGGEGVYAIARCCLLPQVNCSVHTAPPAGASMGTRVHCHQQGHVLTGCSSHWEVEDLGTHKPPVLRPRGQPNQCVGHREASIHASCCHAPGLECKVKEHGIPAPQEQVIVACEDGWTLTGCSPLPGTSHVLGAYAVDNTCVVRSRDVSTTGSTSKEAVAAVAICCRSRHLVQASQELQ
Assay: ELISA, biotin-cyno PCSK9 on streptavidin plate; antibody 0.067 nM
Express your answer in OD450 nm, writing the number without its unit.

What does the record list as OD450 nm for 76A1B11, chimeric anti-PCSK9 mAb purified from hybridoma (antibody, V domains shown, From Harbour H2L2 mice: human variable regions, rat constant regions) VH: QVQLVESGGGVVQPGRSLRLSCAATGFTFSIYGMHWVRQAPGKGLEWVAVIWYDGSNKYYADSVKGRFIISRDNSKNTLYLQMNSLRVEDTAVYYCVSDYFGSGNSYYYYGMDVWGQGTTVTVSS VL: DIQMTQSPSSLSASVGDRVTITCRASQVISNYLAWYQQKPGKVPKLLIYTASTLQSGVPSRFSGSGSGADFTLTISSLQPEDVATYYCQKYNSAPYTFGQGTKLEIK ?
0.81

What does the record list as OD450 nm for 139G1C5, chimeric anti-PCSK9 mAb purified from hybridoma (antibody, V domains shown, From Harbour H2L2 mice: human variable regions, rat constant regions) VH: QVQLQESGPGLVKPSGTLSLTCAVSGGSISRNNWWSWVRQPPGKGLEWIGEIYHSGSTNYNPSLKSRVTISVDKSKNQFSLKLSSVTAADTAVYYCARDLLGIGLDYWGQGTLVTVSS VL: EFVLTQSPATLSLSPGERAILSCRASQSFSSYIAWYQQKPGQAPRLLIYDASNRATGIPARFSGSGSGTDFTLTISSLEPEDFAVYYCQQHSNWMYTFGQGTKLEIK ?
1

What does the record list as OD450 nm for 74C10A8, chimeric anti-PCSK9 mAb purified from hybridoma (antibody, V domains shown, From Harbour H2L2 mice: human variable regions, rat constant regions) VH: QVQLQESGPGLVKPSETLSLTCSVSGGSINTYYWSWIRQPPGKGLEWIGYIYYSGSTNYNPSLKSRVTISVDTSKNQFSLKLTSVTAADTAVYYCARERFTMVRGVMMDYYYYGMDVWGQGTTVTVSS VL: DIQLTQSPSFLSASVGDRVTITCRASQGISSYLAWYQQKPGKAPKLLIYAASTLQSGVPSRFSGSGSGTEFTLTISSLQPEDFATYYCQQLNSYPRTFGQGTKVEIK ?
0.76

What does the record list as OD450 nm for 152G2F7, chimeric anti-PCSK9 mAb purified from hybridoma (antibody, V domains shown, From Harbour H2L2 mice: human variable regions, rat constant regions) VH: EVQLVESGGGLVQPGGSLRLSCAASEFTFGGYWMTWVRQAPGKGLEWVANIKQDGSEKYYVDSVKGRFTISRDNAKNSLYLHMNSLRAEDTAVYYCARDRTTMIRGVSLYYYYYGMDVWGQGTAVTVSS VL: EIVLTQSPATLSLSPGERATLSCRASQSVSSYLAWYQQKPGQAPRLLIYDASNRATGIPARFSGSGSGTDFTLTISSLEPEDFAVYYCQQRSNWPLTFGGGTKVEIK ?
0.35
